Cited source for all entries: patent US20260108476A1

Experiment: pharmacokinetics of DNP in rats
Format: in vivo
Conditions: rat, plasma

| molecule | half-life |
| --- | --- |
| O=[N+]([O-])c1ccc(O)c([N+](=O)[O-])c1 [DNP, 2,4-dinitrophenol] | ~6 h |
